- Assay info: soluble fraction after stress (log2 fold change); higher = more stays soluble; pooled small domains, quantitative proteomics
- Recorded conditions: stress: pH 4
Returns the class for an entry based on its soluble fraction (log2). Class ranges: b0 = under -0.5, b1 = from -0.5 up to -0.02, b2 = -0.02 and over

Please report the category associated with `HMGSKKITIYVSGEVKNPGIVTLNSDQRLASAVEKLGGVTENADMNNINLAMKLEDEMHYIIPKKGEK` , nothing else.
b2

// same read-out, input: `HMNQTTYTVLYSGMDPADTGKVLTALNEMGVDARTQGEDTVLVPADRADEIRLELAAQGYPTS`
b1

Now consider `HMHDYYDSIDAVTHDKSYESNLVFALKLGYTETQLQKALLKLGKKAREDQILEELIRIQKSSKA` .
b2

Request: `HMKTSVGSKMMVMANNLSIRKSANLLSEKLADLSKGDMVEYISSTNGWNKVRYNGYVGYVSSYYLKDTGEV`
b2

Another sequence to look at: `HMEAEQLEAIRSALQQLSDMNRTVFNLHVVDGYKHEEIAAMLNITTGTSKAHLHRAKKRLRELID`
b0

Then `HMTHHGHSIKRIRDMLGIKQETLAAELNMTQQAFSKLEQKEQIEDEMLDKIAKILHVSTEALKT` ?
b1

Further, for `HMQPMIQIHTLANHAPVALHIKRNTQRNIIIRARDASSLNLSIPKWFSPAQLQNWLRDNEATLIRILQQAP` ?
b1

Now try `HMSGAKLLAPVTGTLLRYTVAEGTKVSEGQTVIMLESMKMELEINAHKAGVIHFTAAAGAQVAEGDSLAEI` .
b1

Input `HMTVKKEIAKVKPTPLGWLRVRETPSLNGAEITKVNTGESYDVLDKETGWIKIKVSETVEGWVSDAYIELS`
b2

Okay, and `HMFHDPTMEETLINLKGITNEVLSLLSSSKIKKLEDLAEMSVPELRDIVENISDEEASALIMEARKPWF` ?
b0

Subsequent entry: `HMPSSIEGIEKYLGSGMIRGIGAVYAKRLVKQFGKDVFDIIEETPERLREVEGIGPIRAARIISGWADQ`
b1

Again, but for `HMAKRKYKSFKDVAEFAQKLGIKSSTEWWAYVRGHEIPSDIPKDPSTYYKKEWTTWGDFLGTGYVSSA`
b2

Now this one: `HMPQLEDLEPLDSSGMVRRDGPHLVLAVGRHRGRHLEEVRDSDPSYLHWLLSPKGIEDIQAKEDIKTYLNL`
b1

Check `HMAGTAMRATTAVNVRSGAGTNYSRIGLLQAGEQIQALSSKNGWTQVSYKGRTGYVASAYLASL` too.
b2

How about this sequence: `HMENFSTLFSRLKEERGLSNKQISSFTGAPIKEVKKWESGMGIPTEKRIVAALEGILGSEISKAI`
b2

Then this sequence: `HMFSQDQIFLRSGEKIDARVIEVTPEFIKYKSKANPEGPLYSKKITDVLLITYANGTTEVYE`
b0

Please give the result for `HMTEDIAVRILEFLEDNNGFYALNDKTPSEKIHDLFGVSKKKFKIALGGLYKQRLITVSDAGVTLVK` too.
b1

Cool, now `HMSESGTFRAEAADAGRRLDVALAERLRLSRAAAQRLIAAGLVLVEGSPARKRQILHAGETVAWRAAPP`
b1

Now try `HMSSKSDQLYLQLRRRISAMKDGEPFPTVRQLMTEYQVSQSTVTPAINQLKEKGLIEAYVGRGSFVSKK` .
b2

Please give the result for `HMLQQNRAVEAEQLARKGLSYAQSNIQQAALWRLVAEATEQQGKVDAALNAKNKAMQLEMAG` too.
b2

Same question, `HMGNRWENLISNKMIDDVDEELLRKYIAQAHDAGRIAISYTDRKTVLNQLELTDGDRLLNAGKVLFSD` this time
b0

Input `HMERPLFVIEDYRRFAGNEVEISLKKGGKKIRGVIAGTPSDAEVTVRTQGGETTVPLGDVKRAHLVYV`
b2

Consider next the sequence `HMQEEMIRGDIKLNTVMQTVHLAVGTETERNWQPVETTAKEFELLKLLMENPGVTLKKEYLFHMLI` in the same way.
b0

Here is the next sequence: `HMGQLIGKEEAKQIALSRAGVAEGDISRYESELDTDDGKTKYEISFHVGRVEYDIEINAVTGAVEKFEMDN`
b2

Same lookup for `HMGVGITAPLAGNIFKIVVQPGDVVASGDVVLVLEAMKMETEIRAASGGTVSQVLVREGDAVDAGHTLITL` , please.
b0

Follow-up item: `HMSHLTKKQEEVLLFIRDYYEEEGRSPSYSDIQHHFGLKSKSSVQDYIGYLKKAGFLQKSVGSRAIELV`
b2

Also check `HMVSTDPVHLFNLGTANRRAGRASEAITSYRKFMEAAPQHPQVPEARAYIHDMEVLLQERQKSEQAASQLS`
b1

Now try `HMLDSGNPILPYKLSLLANVDIRTVRNAISAGELVAFKSEFDGEVYVENGSARRWLHGRRGFKPTLK` .
b0

Now give it for `HMAEAIVMSTAAPVKSSPDPQSKDIFVLHEGTKVAVGDSLGDWREIRIADGNKGWVLVSAIEMI` too.
b1

`HMDRNIVYSDFIRSVNQGQVSEVLVQGDNIRGRYLNGKVFQTFAPKDPSLISTLRNKGVRISAEPA` ?
b1

Try `HMYVSGVPAITSIERVSTPGRRVYAGYTTVPKVIGGMGVSILTTSRGVMTDAEARRQKVGGELLAKV` next.
b1

# iterate: `HMESPLNPTDVRRAAMDLLARREHGVEELRLKLKRRFGREEDFETIATEQLQRLVDEDLLSDTRF`
b0
